# Tested on: SNB-19
# Procedure summary: NCI tumour cell line growth inhibition, 48 h
The source made the active and inactive calls. Cut-off read from the data, not from the text of the source: active = GI50 up to about 1.1 µM and inactive = higher.
Outcome field: choose from active, inactive

Check out these entries, answers already filled in.
>>> group("COc1ccc2c3c1OC1C(=O)C=CC4(CC2)N(C)CCC314 (configuration not stated)")
"inactive"
>>> group("C=CCOC(=O)C1=C(C)N=C2N[C@H](CCCCCCCCC)C[C@@H]3CCC1N23 (some centres not stated)")
"inactive"
>>> group("Cc1ccc2c(c1)CNc1ccc(C)cc1CN2")
"active"
>>> group("Cn1c(=O)[nH]c2nccnc2c1=O")
"inactive"
>>> group("O=c1[nH]c(=O)n([C@H]2C[C@@H](CO)[C@@H](O)C2)cc1I")
"inactive"

Next molecule, please.
-- ask Record request — test call for CCC1(c2ccc(N3C(=O)c4ccccc4C3=O)cc2)CCC(=O)NC1=O (configuration not stated)
-- reply inactive

----------
# Test system: KM-20L2
# Procedure summary: NCI tumour cell line growth inhibition, 48 h
Activity calls are given as the source filed them. Cut-off read from the data, not from the text of the source: active = GI50 up to about 1.1 µM and inactive = higher.
Outcome field: choose from active, inactive

>>> group("CCCC(=O)N[C@H]1C2C3CC4C5CC(C42)C1(C)C53 (stereo partly specified)")
"inactive"

-- ask Record request — test call for `CCN(CC)CCNC(=O)c1nn(-c2ccc(Cl)cc2)c2c1CCc1cc(OC)ccc1-2`
-- reply inactive

-- ask Record request — test call for `COc1ccc(/C(Cl)=C(\C=O)c2ccc(F)cc2)cc1OC`
-- reply inactive

-- ask Record request — test call for CC(=O)OC1CCC2(C)C3CCC4(C)C(c5ccc(=O)oc5)CC5OC54C3CCC2(O)C1 (stereo unspecified)
-- reply inactive

-- ask Record request — test call for `COc1cc([C@H]2c3[nH]c4ccccc4c3C[C@H]3COC(=O)N32)cc(OC)c1O`
-- reply active

-- ask Record request — test call for CN(C)CC1CCCC(CN(C)C)C1=O (stereo unspecified)
-- reply inactive

----------
# Test system: BT-549
# Procedure summary: NCI tumour cell line growth inhibition, 48 h
The source made the active and inactive calls. Cut-off read from the data, not from the text of the source: active = GI50 up to about 1.1 µM and inactive = higher.
Quantity: GI50

Example entries begin here.
>>> measured_result("Fc1cccc(Cl)c1/C=N\\N=C1c2ccccc2-c2ccccc21")
"> 100 µM (inactive)"
>>> measured_result("COC(=O)[C@@H]1N2C(=S)N(c3ccccc3)C(=O)[C@H]2SC1(C)C")
"> 100 µM (inactive)"
>>> measured_result("OCCOCn1nncc1Cn1ncc2c(SCc3ccccc3)ncnc21")
"> 100 µM (inactive)"
>>> measured_result("CCOC(=O)c1[nH]cc(C)c1-c1cccn1-c1ccc(Cl)cc1[N+](=O)[O-]")
"27.2 µM (inactive)"
>>> measured_result("COC1OC2COC(c3ccccc3)OC2C(OC(=S)c2ccccc2)C1O (configuration not stated)")
"> 100 µM (inactive)"
>>> measured_result("COc1ccc(C(C#N)NC23CC4CC(CC(C4)C2)C3)cc1 (configuration not stated)")
"> 100 µM (inactive)"
>>> measured_result("CSC12c3cc(C)n(-c4ccc(I)cc4)c3CC(C)(C)CN1C(=O)C2Oc1ccccc1 (configuration not stated)")
"> 100 µM (inactive)"
>>> measured_result("COc1ccc(-c2cc3cc(Cl)cc(Cl)c3oc2=O)cc1OC")
"57.3 µM (inactive)"

-- ask Tell me the measured GI50 of C=C(C)C1CCC2(C)C1CCC1(C)C2CCC2C3(C)C4OC(OC4=O)C(C)(C)C3CCC21C (configuration not stated) , please.
-- reply > 100 µM (inactive)

-- ask Tell me the measured GI50 of CCOc1cc(C2SCC(=O)N2c2ccc(Oc3ccc(Cl)cc3)c(Cl)c2)ccc1O (configuration not stated) , please.
-- reply 15.1 µM (inactive)

-- ask Tell me the measured GI50 of COC(=O)CC1(O)C=CC(=O)C=C1 [JACARANONE] , please.
-- reply 5.02 µM (inactive)

-- ask Tell me the measured GI50 of `CNC1=C/C(=N/C2=CC(=N/C(=C\C#N)C(C)(C)O)/OC2(C)C)OC1(C)C` , please.
-- reply 29.6 µM (inactive)

----------
# Tested on: LOX IMVI
# Procedure summary: NCI tumour cell line growth inhibition, 48 h
The source made the active and inactive calls. Cut-off read from the data, not from the text of the source: active = GI50 up to about 1.1 µM and inactive = higher.
Quantity: GI50

Example entries begin here.
>>> measured_result("COc1cc(/C=C2\\CC3C4CC[C@H]5C[C@@H](O)CC[C@]5(C)C4CC[C@]3(C)C2=O)cc(OC)c1OC (stereo not given in full)")
"12.6 µM (inactive)"
>>> measured_result("Cc1ccc2c(c1)CNc1ccc(C)cc1CN2")
"> 100 µM (inactive)"
>>> measured_result("CCN(CC)CCNC(=O)c1nn(-c2ccc(Cl)cc2)c2c1CCc1cc(OC)ccc1-2")
"2.03 µM (inactive)"
>>> measured_result("CC1=CC(=O)N(n2c(-c3ccccc3)n[nH]c2=O)C1=O")
"> 100 µM (inactive)"

Now, please, on to the next molecule.
-- ask Tell me the measured GI50 of `Cc1ccc(S(=O)(=O)NC(=O)NCCc2ccc(O)c(O)c2)cc1` , please.
-- reply 53.6 µM (inactive)

----------
Measured GI50, listed per entry.
# Tested on: ACHN
# Procedure summary: NCI tumour cell line growth inhibition, 48 h
The source made the active and inactive calls. Rule as the data show it: active = GI50 up to about 1.1 µM and inactive = higher.

-- ask Tell me the measured GI50 of `Cc1cc2c(cc1Cl)SC(N/N=C(\N)c1ccc(Cl)cc1)=NS2(=O)=O` , please.
-- reply 84.3 µM (inactive)

-- ask Tell me the measured GI50 of S=C(/N=C1/NCC(CN2CCN(c3ccccc3)CC2)O1)Nc1ccccc1 (stereo not given) , please.
-- reply > 100 µM (inactive)

-- ask Tell me the measured GI50 of `COc1ccc(/C(Cl)=C(\C=O)c2ccc(F)cc2)cc1OC` , please.
-- reply 16.8 µM (inactive)

-- ask Tell me the measured GI50 of `O=C1C(Br)=C(c2ccccc2)O/C1=C/C(=O)c1ccc(Br)cc1` , please.
-- reply 38.5 µM (inactive)

-- ask Tell me the measured GI50 of C[C@H]1CC[P+](Cc2ccccc2)(c2ccccc2)C1 (stereo not given in full) , please.
-- reply > 100 µM (inactive)

-- ask Tell me the measured GI50 of NC1=NN(c2ccccc2)C(=O)C1/C(=N\NC(=O)c1cc2ccccc2cc1O)C(=O)Nc1nc([N+](=O)[O-])cs1 (stereo not given) , please.
-- reply 34.4 µM (inactive)

-- ask Tell me the measured GI50 of CCOC(=O)C(NC(=O)c1ccccc1)(c1ccc(S(=O)(=O)Nc2onc(C)c2C)cc1)C(F)(F)F (stereo not given) , please.
-- reply > 100 µM (inactive)

-- ask Tell me the measured GI50 of `COc1ccc(-n2sc3ncccc3c2=O)cc1` , please.
-- reply 19.4 µM (inactive)

-- ask Tell me the measured GI50 of `S=C(N/N=C\C=N/NC(=S)N1CCCCC1)N1CCCCC1` , please.
-- reply 0.267 µM (active)

-- ask Tell me the measured GI50 of `O=c1[nH]c2cc3cccnc3c(Cl)c2nc1C(F)(F)F` , please.
-- reply 35.9 µM (inactive)

----------
# Test system: SK-OV-3
# Procedure summary: NCI tumour cell line growth inhibition, 48 h
The source made the active and inactive calls. Cut-off read from the data, not from the text of the source: active = GI50 up to about 1.1 µM and inactive = higher. *1 amine or outer side, *2 acyl side, *3 side chain or, on linkers, in order; H or OH if unused. Where a SMILES comes first, the peptide text is derived from it. Bridges are numbered along the chain shown (N, C = ends). Roman numbers before positions name the chains, in order. [ ]: non-standard residue; d: D form. Actinocin(9to1) = Cc1c2oc3c(C)ccc(C(=O)[*:1])c3nc-2c(C(=O)[*:2])c(N)c1=O; Hyp = O=C(O)[CH]1C[CH](O)CN1; NMeV = CN[CH](C(=O)O)C(C)C; Sar = CNCC(=O)O
Outcome field: choose from active, inactive

>>> group("COC(=O)CC1(O)C=CC(=O)C=C1")
"inactive"
>>> group("CCCCCCCCC[C@@H]1CC(=O)OCC2OC(O[C@H](CCCCCCCCC)CC(=O)OCC3OC(O[C@H](CCCCCCCCC)CC(=O)OCC4OC(O1)C(O)C(O)C4O)C(O)C(O)C3O)C(O)C(O)C2O (stereo not given in full)")
"inactive"
>>> group("Cc1c(C(=O)O)c2cc3ccccc3cc2c(=O)n1C")
"inactive"

-- ask Record request — test call for O=C1CSC(c2ccccc2[N+](=O)[O-])N1c1ccc(-c2ccc(-n3c(-c4ccccc4)nc4ccccc4c3=O)cc2)cc1 (stereo not given)
-- reply inactive

-- ask Record request — test call for O=C(CC1(O)C(=O)Nc2ccc(Br)cc21)c1ccc(Cl)cc1 (stereo not given)
-- reply inactive

-- ask Record request — test call for Cc1c2oc3c(C)ccc(C(=O)NC4C(=O)NC(C(C)C)C(=O)N5CC(O)CC5C(=O)N(C)CC(=O)N(C)C(C(C)C)C(=O)OC4C)c3nc-2c(C(=O)NC2C(=O)NC(C(C)C)C(=O)N3CC(O)CC3C(=O)N(C)CC(=O)N(C)C(C(C)C)C(=O)OC2C)c(N)c1=O (stereo not given) (I: TV[Hyp][Sar][NMeV] / II: TV[Hyp][Sar][NMeV]; ester I:1-I:C, II:1-II:C; linker I:N-II:N via Actinocin(9to1); configuration not given here)
-- reply active

-- ask Record request — test call for `CCOC(=O)c1nc2c(Cl)c3ncccc3cc2[nH]c1=O`
-- reply inactive

-- ask Record request — test call for COC(=O)C1C(=O)NC2(C)CC1c1ccccc1O2 (stereo not given)
-- reply inactive

-- ask Record request — test call for `CN1C(=O)[C@@H]2N(CSC2(C)C)C1=S`
-- reply inactive

-- ask Record request — test call for CC1OC(O)C(O)C(O)C1O (stereo not given)
-- reply inactive

-- ask Record request — test call for C=C(C)C1CCC2(C)C1CCC1(C)C2CCC2C3(C)C4OC(OC4=O)C(C)(C)C3CCC21C (stereo not given)
-- reply inactive

Source listed as ChEMBL document CHEMBL1201862.
